Give measured EC50 for each item. Keep answers brief.
# procedure-summary: Activation of rat liver AMPK
Answers are plain numbers, in µM.

Nc1ncnc2c1ncn2[C@H]1O[C@@H](COP(=O)(O)O)[C@H](O)[C@@H]1O	6

Pending compound:
Could you tell me which EC50 is on file for N#Cc1c(O)c2c(-c3ccc(-c4ccccc4O)cc3)csc2[nH]c1=O ? 0.116
